Taken from paper PMC7531004.

Test system: Streptococcus pyogenes SSI-9
Assay: Antibacterial activity assay of bead-derived peptides (three concentrations)
Assay type: cell-based
Set-up: key: +++: inhibition by the 640-fold diluted peptide solution; ++: inhibition by the 160-fold diluted solution; +: inhibition by the 40-fold diluted solution; -: no inhibition
Conditions: S. pyogenes, bead-derived peptide solution, three concentrations
Where a SMILES comes first, the peptide text is derived from it. [ ]: non-standard residue; d: D form. The star is where a group is joined. NHCH2CH2OH = OCCN*; For = O=C*

compound | antibacterial activity
CC(C)C[C@@H](NC(=O)[C@H](C)NC(=O)CNC(=O)[C@@H](NC=O)C(C)C)C(=O)N[C@@H](C)C(=O)N[C@H](CC(C)C)C(=O)N[C@H](C(=O)N[C@H](CC(C)C)C(=O)N[C@@H](Cc1c[nH]c2ccccc12)C(=O)N[C@@H](C(=O)N[C@@H](Cc1c[nH]c2ccccc12)C(=O)N[C@H](CC(C)C)C(=O)N[C@@H](Cc1c[nH]c2ccccc12)C(=O)N[C@@H](C(=O)N[C@@H](Cc1c[nH]c2ccccc12)C(=O)NCCO)C(C)C)C(C)C)C(C)C [compound 6096] (For-VGA[dL]A[dL]V[dL]W[dV]W[dL]W[dV]W-NHCH2CH2OH) | +
CC(C)C[C@@H](NC(=O)[C@H](C)NC(=O)[C@H](NC(=O)[C@H](C)NC(=O)CNC(=O)[C@@H](NC=O)C(C)C)C(C)C)C(=O)N[C@H](C(=O)N[C@H](CC(C)C)C(=O)N[C@@H](Cc1c[nH]c2ccccc12)C(=O)N[C@@H](C(=O)N[C@@H](Cc1c[nH]c2ccccc12)C(=O)N[C@H](CC(C)C)C(=O)N[C@@H](Cc1c[nH]c2ccccc12)C(=O)N[C@@H](C(=O)N[C@@H](Cc1c[nH]c2ccccc12)C(=O)NCCO)C(C)C)[C@H](C)O)C(C)C [compound 3260] (For-VGA[dV]A[dL]V[dL]W[dT]W[dL]W[dV]W-NHCH2CH2OH) | +

----------
Settings: IC50, mammalian cytotoxicity assay
Protocol: Second, we examined the cytotoxicity toward mammalian cancer cells and hemolytic activity of 1. […] Hemolytic activity was evaluated by monitoring hemoglobin leakage from rabbit red blood cells as a consequence of membrane damage. […] were determined by WST -1 assay. […] 37 °C. The absorbance of each well at 415 nm was measured using a Benchmark microplate reader […] peptides were evaluated as IC 50 (nM) by means of three replicates. […]
Where a SMILES comes first, the peptide text is derived from it. [ ]: non-standard residue; d: D form. The star is where a group is joined. NHCH2CH2OH = OCCN*; For = O=C*
measureName: IC50

compound | measureName | reportedValue
CC(C)C[C@@H](NC(=O)[C@H](C)NC(=O)[C@H](NC(=O)[C@H](C)NC(=O)CNC(=O)[C@@H](NC=O)C(C)C)[C@H](C)O)C(=O)N[C@H](C(=O)N[C@H](CC(C)C)C(=O)N[C@@H](Cc1c[nH]c2ccccc12)C(=O)N[C@@H](C(=O)N[C@@H](Cc1c[nH]c2ccccc12)C(=O)N[C@H](CC(C)C)C(=O)N[C@@H](Cc1c[nH]c2ccccc12)C(=O)N[C@@H](C(=O)N[C@@H](Cc1c[nH]c2ccccc12)C(=O)NCCO)C(C)C)[C@H](C)O)C(C)C [B21] (For-VGA[dT]A[dL]V[dL]W[dT]W[dL]W[dV]W-NHCH2CH2OH) | IC50 | > 1 µM
